# experimental.target: human glycolate oxidase (hGO) (Homo sapiens, UniProt Q9UJM8)
# Construct: His-tag (6 histidines, pET-15b) (N); made in house; host or cells: E. coli BL21 (DE3)
# Sequence (Q9UJM8 1-370): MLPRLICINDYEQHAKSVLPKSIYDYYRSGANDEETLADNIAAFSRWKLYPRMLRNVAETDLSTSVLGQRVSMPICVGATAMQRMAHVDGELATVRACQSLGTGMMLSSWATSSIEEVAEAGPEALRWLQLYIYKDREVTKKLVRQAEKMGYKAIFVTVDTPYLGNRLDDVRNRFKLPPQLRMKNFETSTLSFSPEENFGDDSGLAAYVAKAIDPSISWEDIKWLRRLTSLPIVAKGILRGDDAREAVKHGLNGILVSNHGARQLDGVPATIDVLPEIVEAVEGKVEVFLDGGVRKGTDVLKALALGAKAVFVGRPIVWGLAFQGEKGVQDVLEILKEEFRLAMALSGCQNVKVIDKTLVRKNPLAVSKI
# assay.notes: In vitro inhibition of human glycolate oxidase (enzymatic assay, HRP-coupled Trinder reaction);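 also: values are IC50 potency bins despite the % Inhibition label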
# Type: biochemical
# condition.info: recombinant hGO, 40 mM glycolic acid, pH 7, read at 515 nm, 1 minute after initiation of Trinder reaction; read-out: % Inhibition
pIC50: −log10 of the molar value.
measure.name: pIC50

Some molecules with recorded pIC50:
O=C(O)c1nn[nH]c1Oc1ccc(-c2ccc(-c3cccc(OC(F)F)c3)cc2)cc1 : > 7.00
O=C(O)c1nn[nH]c1Oc1ccc(-c2cccnc2)cc1 : 6.70 to 7.00
O=C1CCC(c2ccc(Oc3[nH]nnc3C(=O)O)cc2)CC1 : 6.70 to 7.00
O=C(O)c1nn[nH]c1Oc1ccc(-c2ccc(C3CC3)cc2)cc1 : > 7.00
O=C(O)c1nn[nH]c1Oc1ccc(-c2cc(F)c(F)c(F)c2)cc1 : 6.70 to 7.00

// lookup pIC50 | system=human glycolate oxidase (hGO) (Homo sapiens, UniProt Q9UJM8) | key= O=C(O)c1nn[nH]c1Sc1ccc(-c2ccc(C(F)(F)F)cc2)cc1 6.70 to 7.00

// lookup pIC50 | system=human glycolate oxidase (hGO) (Homo sapiens, UniProt Q9UJM8) | key= NC(=O)c1ccc(Oc2[nH]nnc2C(=O)O)cc1 < 6.70

// lookup pIC50 | system=human glycolate oxidase (hGO) (Homo sapiens, UniProt Q9UJM8) | key= O=C(O)c1nn[nH]c1Oc1ccc(-c2ccn[nH]2)cc1 > 7.00
